- System: HT29 colon
- experiment description: NCI-60 one-dose screen, 48 h
- cond: 10 µM unless noted
The panel holds about 83,000 compounds, 20% with a hit somewhere; the sample as a whole holds those more often. Active and inactive are the calls of the source. Rule for the calls: active = growth percent below 10; inactive = the rest.
Answer with one of the outcomes active, inactive

Below, 6 compounds whose answers are already recorded.
molecular string	label
COc1ccc(CNCCN2C(=O)c3ccc4c5c(ccc(c35)C2=O)C(=O)N(CCNCc2ccc(OC)c(OC)c2OC)C4=O)c(OC)c1OC	active
O=C1Nc2cc(-c3ccc(NS(=O)(=O)c4ccccc4)cc3)ccc2/C1=C/c1ccc[nH]1	inactive
O=Cc1ccc(-c2cn3ccnc3c(-c3ccc4ncn(Cc5ccccc5)c4c3)n2)cc1	inactive
CCOC(=O)c1cc(C(=O)c2ccc(OC)cc2)n2ccc(/C=C/c3cc[n+](CC(=O)c4ccc(OC)cc4)cc3)cc12	inactive
COc1cccc2c1c1nc3cc(C)c(C)cc3nc1n2CCN(C)C	inactive
O=C(Cc1ccccc1)NNc1nc(Cl)nc(N2CCN(C(c3ccccc3)c3ccccc3)CC2)n1	inactive

Exercise: GET /call?item= O=C(CCN1CCCC1)Nc1ccc2c(NCc3ccccc3)c3ccccc3nc2c1 returns the recorded outcome of this test.
Solution: active

Exercise: GET /call?item= O=C(/C=C(O)/C=C/c1ccc(SC(F)(F)F)cc1)/C=C/c1ccc(SC(F)(F)F)cc1 returns the recorded outcome of this test.
Solution: inactive

Exercise: GET /call?item= COc1ccc(C/C(=C(\C)c2ccc(OCCN3CCCC3)cc2)c2ccc(OCCN3CCCC3)cc2)cc1 returns the recorded outcome of this test.
Solution: active
